Target: T1, cynoSIRPα (XP_015313155), Extracellular Domain + His-Tag (cynomolgus monkey)
T1 construct: also called CySIRPα XP_015313155; not shown: His-Tag
T1 chain: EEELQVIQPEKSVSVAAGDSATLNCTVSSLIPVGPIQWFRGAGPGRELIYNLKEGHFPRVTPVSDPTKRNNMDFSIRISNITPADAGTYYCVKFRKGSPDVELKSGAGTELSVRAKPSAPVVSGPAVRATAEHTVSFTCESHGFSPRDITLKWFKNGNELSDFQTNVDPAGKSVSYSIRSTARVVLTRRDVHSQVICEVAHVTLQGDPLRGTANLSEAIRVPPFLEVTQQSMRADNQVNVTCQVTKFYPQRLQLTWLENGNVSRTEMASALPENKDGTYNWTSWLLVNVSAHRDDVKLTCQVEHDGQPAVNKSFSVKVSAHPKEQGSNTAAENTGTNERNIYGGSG
Assay: SPR, antibody captured on Protein A/G, ECD-His analyte, 1:1 fit
Reported Kd values for a set of binders
# unit: nM | format: bare number

Illustrative cases are given below, each with its answer.
Antibody E9 (antibody, human IgG1, kappa, L234A L235A, V domains shown) VH: QVQLQESGPGLVRPSETLSLTCTVSGGSIRNYYWSWIRQPPGKGLEWIGFIYYNGRTFYNPSLKSRVTISLDMSINQFSLKMTSVTAADTAVYYCARVRAYSGIGLDGTDVWGQGTTVTVSS VL: DIVMTQSPLSLPVTPGEPASISCKSSQSLLYSNAYNYLDWYLQRPGQSPQLLIYLGSNRASGVPDRFSGSGSGTDFTLKISRVEAEDVGVYYCMQALQTPLTFGGGTKVEIKR	40.8
Antibody E17 (antibody, human IgG1, kappa, L234A L235A, V domains shown) VH: QVQLQESGPGLVRPSETLSLTCTVSGGSIRNYYWSWIRQPPGKGLEWMGFIYDNGRTFYNPSLKSRVTISLDMSMNQFSLKMTSVTAADTAVYYCARVRAYSGIGLDGTDVWGQGTTVTVSS VL: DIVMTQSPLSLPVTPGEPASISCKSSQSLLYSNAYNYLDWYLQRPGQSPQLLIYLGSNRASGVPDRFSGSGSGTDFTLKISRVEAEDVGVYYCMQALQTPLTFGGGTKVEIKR	43.2
Antibody E21 (antibody, human IgG1, kappa, L234A L235A, V domains shown) VH: QVQLQESGPGLVRPSETLSLTCTVSGGSIRNYYWSWIRQPPGKGLEWIGFIYYTGRTFYNPSLKSRVTISLDMSKNQFSLKMTSVTAADTAVYYCARVRAYSGIGLDGTDVWGQGTTVTVSS VL: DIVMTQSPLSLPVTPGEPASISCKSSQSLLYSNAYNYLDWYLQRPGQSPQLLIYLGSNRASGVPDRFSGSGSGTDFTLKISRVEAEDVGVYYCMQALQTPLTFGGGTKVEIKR	108
Antibody E2 (antibody, human IgG1, kappa, L234A L235A, V domains shown) VH: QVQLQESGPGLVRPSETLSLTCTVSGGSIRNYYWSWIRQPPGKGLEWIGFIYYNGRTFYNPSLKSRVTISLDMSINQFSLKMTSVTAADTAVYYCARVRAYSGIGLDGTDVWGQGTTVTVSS VL: DIVMTQSPLSLPVTPGEPASISCKSSQSLLYSNGYAYLDWYLQRPGQSPQLLIYLGSNRASGVPDRFSGSGSGTDFTLKISRVEAEDVGVYYCMQALQTPLTFGGGTKVEIKR	19.7

Pending binder:
Task: Respond only with Kd recorded for Antibody E18 (antibody, human IgG1, kappa, L234A L235A, V domains shown) VH: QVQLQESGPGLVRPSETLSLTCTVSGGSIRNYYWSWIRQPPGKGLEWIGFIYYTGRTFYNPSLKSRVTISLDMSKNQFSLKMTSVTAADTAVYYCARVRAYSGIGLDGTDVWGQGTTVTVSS VL: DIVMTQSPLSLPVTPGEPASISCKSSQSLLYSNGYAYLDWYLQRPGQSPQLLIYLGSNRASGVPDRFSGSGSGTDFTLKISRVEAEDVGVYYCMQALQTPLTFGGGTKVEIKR
Output: 50
